Please consider the recorded pKi for Angiotensin-converting enzyme (Oryctolagus cuniculus, UniProt P12822) in what follows.
pKi: −log10 of the molar value.
observation type: pKi

# compound, value qualifier, test result
measured = [
    ("O=C(O)[C@H]1CCCC2c3ccccc3C[C@@H](CS)C(=O)N21 (stereo in doubt; 3)", "=", 8.70),
    ("O=C(NC1Cc2ccccc2C2CCC[C@H](C(=O)O)N2C1=O)C(S)Cc1ccccc1 (stereo in doubt; 11b)", "=", 8.35),
    ("O=C(O)[C@H]1CCCC2c3ccccc3C[C@@H](CS)C(=O)N21 (stereo in doubt; 4)", "<", 8.15),
    ("O=C(O)[C@H](CCc1ccccc1)N[C@@H]1Cc2ccccc2C2CCC[C@H](C(=O)O)N2C1=O (stereo not given in full)", "=", 11.40),
    ("O=C(NC1Cc2ccccc2C2CCC[C@H](C(=O)O)N2C1=O)C(S)Cc1ccccc1 (stereo in doubt)", "=", 9.96),
]

----------
tested target: UniProt P07861
Sequence (P07861 whole entry): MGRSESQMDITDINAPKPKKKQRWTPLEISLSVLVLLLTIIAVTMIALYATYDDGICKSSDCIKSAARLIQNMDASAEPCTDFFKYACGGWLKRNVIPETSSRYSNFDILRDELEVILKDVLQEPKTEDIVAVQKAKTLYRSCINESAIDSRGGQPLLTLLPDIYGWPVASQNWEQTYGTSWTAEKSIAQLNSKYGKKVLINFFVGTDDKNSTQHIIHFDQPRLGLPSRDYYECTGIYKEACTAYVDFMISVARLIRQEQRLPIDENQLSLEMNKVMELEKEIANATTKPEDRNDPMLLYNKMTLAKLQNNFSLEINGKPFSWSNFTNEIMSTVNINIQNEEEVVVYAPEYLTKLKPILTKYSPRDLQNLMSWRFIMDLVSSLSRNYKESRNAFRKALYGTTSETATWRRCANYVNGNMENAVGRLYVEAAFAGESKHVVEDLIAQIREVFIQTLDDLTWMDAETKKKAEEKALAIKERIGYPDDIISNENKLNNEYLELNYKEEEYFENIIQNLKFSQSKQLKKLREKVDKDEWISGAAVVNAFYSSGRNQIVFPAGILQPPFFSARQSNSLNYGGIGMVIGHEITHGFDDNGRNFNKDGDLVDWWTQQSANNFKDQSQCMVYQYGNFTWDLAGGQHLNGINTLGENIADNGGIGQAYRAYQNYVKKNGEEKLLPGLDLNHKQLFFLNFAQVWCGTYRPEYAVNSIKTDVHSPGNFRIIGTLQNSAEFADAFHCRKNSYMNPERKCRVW
pKi: −log10 of the molar value.

# molecule, pKi
records = [
    ("O=C(O)[C@H]1CCCC2c3ccccc3C[C@@H](CS)C(=O)N21 (stereo in doubt; 4)", 7.35),
]
